Recorded phosphorylation enrichment by entry
# Tested On: FGFR1 (UniProt P11362)
# Sequence (P11362 whole entry, looked up): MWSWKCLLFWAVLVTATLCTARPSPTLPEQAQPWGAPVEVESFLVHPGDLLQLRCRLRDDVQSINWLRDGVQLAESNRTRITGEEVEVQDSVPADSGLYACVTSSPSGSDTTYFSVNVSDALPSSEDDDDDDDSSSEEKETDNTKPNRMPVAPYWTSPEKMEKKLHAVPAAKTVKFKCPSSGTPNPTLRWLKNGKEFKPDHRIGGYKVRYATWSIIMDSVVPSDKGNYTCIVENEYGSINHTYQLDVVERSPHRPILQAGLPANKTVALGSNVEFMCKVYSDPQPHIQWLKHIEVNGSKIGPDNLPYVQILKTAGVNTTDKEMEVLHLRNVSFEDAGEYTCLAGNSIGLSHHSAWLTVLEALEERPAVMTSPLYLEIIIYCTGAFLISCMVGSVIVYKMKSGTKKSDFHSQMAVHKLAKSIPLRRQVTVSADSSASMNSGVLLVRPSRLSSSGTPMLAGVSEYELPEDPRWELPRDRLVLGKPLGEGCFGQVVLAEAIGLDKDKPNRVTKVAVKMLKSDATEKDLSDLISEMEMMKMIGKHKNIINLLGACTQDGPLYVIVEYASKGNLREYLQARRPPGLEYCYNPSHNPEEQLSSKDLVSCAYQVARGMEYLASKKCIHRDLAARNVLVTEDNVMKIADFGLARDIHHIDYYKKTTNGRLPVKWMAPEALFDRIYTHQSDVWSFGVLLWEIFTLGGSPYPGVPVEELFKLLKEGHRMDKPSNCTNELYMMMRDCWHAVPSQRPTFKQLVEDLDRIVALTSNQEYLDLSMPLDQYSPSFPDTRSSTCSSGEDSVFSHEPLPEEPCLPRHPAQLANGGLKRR
# Test Method Notes: phosphorylation enrichment, bacterial display (enrichment ratio); higher = better substrate or ligand; peptides without Tyr show the background;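 further: 11-residue human phosphosite peptides and single-mutation variants displayed on the E. coli surface, counted by deep sequencing, each peptide's frequency after selection divided by its frequency in the unselected input library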;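 further: frequency after pTyr selection over input frequency; kinase dosed for 20-30% of maximal phosphorylation in three min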

Residues: EKQVAYCPSGK [ROS1_Y2323]
phosphorylation enrichment: 0.49
--
Residues: MSNFAYVKREV [SCN1A_Y1694]
phosphorylation enrichment: 0.447
--
Residues: ALAAPYVLFPS [CEFIP_Y1332_G1337S_YF]
phosphorylation enrichment: 2.56
--
Residues: ESLSSYWESAK [APOC2_Y47]
phosphorylation enrichment: 0.63
--
Residues: CTTIHYIYMCN [TP53_Y234_N235I]
phosphorylation enrichment: 0.404
--
Residues: TDEFEYDELIV [TGM1_Y136_YF]
phosphorylation enrichment: 1.69
--
Residues: CENCHYPILPL [LCK_Y25_V28L]
phosphorylation enrichment: 0.541
--
Residues: SGSFRYGSSFE [SELE_Y390_C394F]
phosphorylation enrichment: 0.419
--
Residues: SSYDIYHLSRE [KIR3DL2_Y253]
phosphorylation enrichment: 2.73
--
Residues: RLLCEYQELMN [KRT75_Y434_R432C]
phosphorylation enrichment: 0.961
--
Residues: ANLAKYGNPNE [BCHE_Y505_F502L]
phosphorylation enrichment: 0.392
--
Residues: CKPGFYNLKEK [LAMA1_Y490]
phosphorylation enrichment: 0.472
--
Residues: PDGVEYLKNNP [GRIN3A_Y831_D835N]
phosphorylation enrichment: 0.503
--
Residues: IGEGTYGQVYK [CDK13_Y716]
phosphorylation enrichment: 0.553

----------
# Test system: c-Abl (mouse)
# Test Method Notes: phosphorylation enrichment, bacterial display (enrichment ratio); higher = better substrate or ligand; peptides without Tyr show the background
Recorded phosphorylation enrichment by entry

Residues: SDYYAYSPVQE [H6PD_Y449_R453Q]
phosphorylation enrichment: 8.16
//
Residues: CTTIHKNFMCN [TP53_Y234_Y234K_YF]
phosphorylation enrichment: 0.49
//
Residues: GPRSLYNGLVA [UCP2_Y79]
phosphorylation enrichment: 0.555
//
Residues: FSLIHYAGIVV [MYH7_Y582_D587V]
phosphorylation enrichment: 1.04
//
Residues: RHLQEYQDLLN [GFAP_Y349]
phosphorylation enrichment: 0.417
//
Residues: PLQKTYNHNVL [SLC4A1_Y553_Y555H]
phosphorylation enrichment: 0.833
//
Residues: DVFVSYDCGKS [SORL1_Y139_Y141C_YF]
phosphorylation enrichment: 0.74
//
Residues: IFSGIYFKPES [L2HGDH_Y102_H98Y_YF]
phosphorylation enrichment: 11.2
//
Residues: PTTKTYFPQFD [HBA1_Y43_H46Q]
phosphorylation enrichment: 0.597
//
Residues: KLFFHYDPKLC [INSR_Y457_N458D]
phosphorylation enrichment: 0.948
//
Residues: PLQSEYSSIST [ITGB4_Y1760_T1764S]
phosphorylation enrichment: 1.49
//
Residues: YGPPQYNMQYS [ERBB2IP_Y977_I979M]
phosphorylation enrichment: 0.481
//
Residues: PFFASYPPSPD [GDAP2_Y491_T489A_YF]
phosphorylation enrichment: 0.859

----------
Recorded phosphorylation enrichment by entry
# Tested On: MERTK (UniProt Q12866)
# Sequence (Q12866 whole entry, looked up): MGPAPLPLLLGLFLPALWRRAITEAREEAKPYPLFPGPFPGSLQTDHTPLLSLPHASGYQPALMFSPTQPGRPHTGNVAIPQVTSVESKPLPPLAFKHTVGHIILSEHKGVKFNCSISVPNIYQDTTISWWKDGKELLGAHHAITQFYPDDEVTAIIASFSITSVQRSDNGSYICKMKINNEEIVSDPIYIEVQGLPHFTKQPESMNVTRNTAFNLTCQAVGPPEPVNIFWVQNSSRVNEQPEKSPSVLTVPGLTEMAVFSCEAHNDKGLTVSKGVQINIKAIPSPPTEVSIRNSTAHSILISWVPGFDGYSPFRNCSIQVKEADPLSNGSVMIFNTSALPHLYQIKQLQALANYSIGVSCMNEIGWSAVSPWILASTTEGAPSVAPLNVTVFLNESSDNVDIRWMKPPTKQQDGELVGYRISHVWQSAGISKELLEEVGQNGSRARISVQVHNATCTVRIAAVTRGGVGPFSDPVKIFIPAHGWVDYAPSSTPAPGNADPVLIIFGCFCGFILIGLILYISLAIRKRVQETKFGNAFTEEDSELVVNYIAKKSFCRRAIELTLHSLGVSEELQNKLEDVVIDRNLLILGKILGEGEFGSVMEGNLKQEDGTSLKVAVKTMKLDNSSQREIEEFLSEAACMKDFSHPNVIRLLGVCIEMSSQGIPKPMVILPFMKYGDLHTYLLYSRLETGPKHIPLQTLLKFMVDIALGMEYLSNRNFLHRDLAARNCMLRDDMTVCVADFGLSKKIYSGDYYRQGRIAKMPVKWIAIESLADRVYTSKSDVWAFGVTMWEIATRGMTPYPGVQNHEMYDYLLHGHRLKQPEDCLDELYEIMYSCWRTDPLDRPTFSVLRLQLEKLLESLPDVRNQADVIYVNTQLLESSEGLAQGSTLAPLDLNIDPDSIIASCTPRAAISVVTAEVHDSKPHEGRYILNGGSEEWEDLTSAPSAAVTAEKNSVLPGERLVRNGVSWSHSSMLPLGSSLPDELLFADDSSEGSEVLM
# Test Method Notes: phosphorylation enrichment, bacterial display (enrichment ratio); higher = better substrate or ligand; peptides without Tyr show the background
Test Readout: phosphorylation enrichment

Residues: RFFTTYDTNGR [CLCA1_Y665_YF]
Observed Value: 0.707

Residues: SKLTIYDARPS [MTM1_Y277]
Observed Value: 0.825

Residues: PTTKTYFPQFD [HBA1_Y43_H46Q]
Observed Value: 0.428

Residues: CTTIHYSYMCN [TP53_Y234_N235S]
Observed Value: 0.874

Residues: PEVRRCVLPLN [RPE65_Y368_Y368C]
Observed Value: 0.458

Residues: KNGSNYVVKGN [KIT_Y823_D820G]
Observed Value: 0.466

Residues: SVTCTYSPALF [TP53_Y126_N131Y_YF]
Observed Value: 0.479

Residues: FALAEYTEVKT [ALDH1A3_Y497_YF]
Observed Value: 0.45

Residues: KMATAYIRRMS [BCO1_Y264]
Observed Value: 0.468

Residues: GIFEDYVEGLR [MYL6_Y89_T85I_YF]
Observed Value: 0.393

Residues: PQGVSYIYTID [DCX_Y103_R102S]
Observed Value: 3.15

Residues: AAILGYCRGEA [XPC_Y669]
Observed Value: 0.413

Residues: HGVSSYDTIIS [LDLR_Y465_V468I]
Observed Value: 0.797

Residues: QSVEPYTKQQL [STAT3_Y640]
Observed Value: 0.709

Entry source: the supplement of paper PMC10065799
